- Target or system: T1, anti-CD28 scFv (VH-linker 1-VL) (biotinylated (site not stated))
- T1 construct: Captured as biotinylated scFv on neutravidin coated plates in the phage ELISA
- T1 sequence (scFv, as listed by the source): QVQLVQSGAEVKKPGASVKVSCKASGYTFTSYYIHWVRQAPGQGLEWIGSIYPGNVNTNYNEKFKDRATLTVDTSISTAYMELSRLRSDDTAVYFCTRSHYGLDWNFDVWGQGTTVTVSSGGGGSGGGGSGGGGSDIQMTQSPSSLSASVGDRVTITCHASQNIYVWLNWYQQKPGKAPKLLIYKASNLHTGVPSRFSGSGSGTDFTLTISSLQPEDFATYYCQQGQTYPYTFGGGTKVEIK
- Method notes: phage ELISA; scFv wells pre-incubated with soluble CD28 (competitor);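 also: crude clonal phage supernatants added to wells pretreated with soluble CD28 in blocking buffer, bound phage read via HRP-linked anti-M13 antibody, reference wells got blocking buffer only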
If the reported CD28 scFv signal in presence of CD28 equals or exceeds 0.3, assign Satisfied. If not, assign Not satisfied.

Binder | Classification
MDWCPRALWDHCFF (on phage (pIII fusion)) [Phage-292 clonal phage peptide] | Satisfied
MDWCPWDMWDKCFN (on phage (pIII fusion)) [Phage-217 clonal phage peptide] | Not satisfied
MDWCPKHLWTECFA (on phage (pIII fusion)) [Phage-242 clonal phage peptide] | Not satisfied
MDWCPRDLWYVCFA (on phage (pIII fusion)) [Phage-321 clonal phage peptide] | Not satisfied
MDWCPRNLWHLCFA (on phage (pIII fusion)) [Phage-245 clonal phage peptide] | Not satisfied
MDWCPPYLWSECFA (on phage (pIII fusion)) [Phage-238 clonal phage peptide] | Not satisfied
MDWCPRYLWHVCFN (on phage (pIII fusion)) [Phage-239 clonal phage peptide] | Satisfied
MDWCPRDRWVDCFF (on phage (pIII fusion)) [Phage-223 clonal phage peptide] | Not satisfied
DSFCTWSAWQECGR (on phage (pIII fusion)) [Phage-269 clonal phage peptide] | Not satisfied
MDWCPRDFWAFCFF (on phage (pIII fusion)) [Phage-270 clonal phage peptide] | Satisfied
MDWCPRTLWHVCFN (on phage (pIII fusion)) [Phage-240 clonal phage peptide] | Satisfied
MDWCPRYLWHVCFD (on phage (pIII fusion)) [Phage-302 clonal phage peptide] | Satisfied
MVGCATSMWNRCLT (on phage (pIII fusion)) [Phage-253 clonal phage peptide] | Satisfied
MDWCPRDHWVDCYS (on phage (pIII fusion)) [Phage-275 clonal phage peptide] | Not satisfied
MDWCPKSLWAECFN (on phage (pIII fusion)) [Phage-308 clonal phage peptide] | Not satisfied

The reported measurements were obtained from patent US20230357447A1.
